Quick reference: pKi of the listed items.
target: Vasopressin V1a receptor (Homo sapiens)
Sequence (P37288 whole entry): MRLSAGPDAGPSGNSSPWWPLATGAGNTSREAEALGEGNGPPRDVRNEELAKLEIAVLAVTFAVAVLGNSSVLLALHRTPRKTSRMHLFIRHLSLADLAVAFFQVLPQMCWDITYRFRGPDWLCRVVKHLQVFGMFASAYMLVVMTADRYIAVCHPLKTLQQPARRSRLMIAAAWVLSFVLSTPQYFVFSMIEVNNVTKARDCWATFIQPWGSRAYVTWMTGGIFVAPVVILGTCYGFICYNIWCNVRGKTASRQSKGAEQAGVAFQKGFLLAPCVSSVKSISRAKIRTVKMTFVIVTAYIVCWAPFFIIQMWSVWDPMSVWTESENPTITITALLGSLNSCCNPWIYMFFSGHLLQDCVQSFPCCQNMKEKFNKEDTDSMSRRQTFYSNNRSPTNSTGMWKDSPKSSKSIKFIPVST
Entry type: numeric. Quantity: pKi, the -log10 of concentration in molar units.

Use these answered entries as a reference point.
{"columns": ["SMILES STR", "pKi"],
 "data": [
  ["COc1cccn(CC(=O)NCc2cc3cc(C(=O)N4CCC(N5C(=O)OCc6ccccc65)CC4)ccc3o2)c1=O", 5.80],
  ["CCOc1ccn(CC(=O)NCc2cc3cc(C(=O)N4CCC(N5C(=O)OCc6ccccc65)CC4)ccc3o2)c(=O)n1", 5.80]
]}

Query string: Which pKi value belongs to O=C(Cn1cc(C(F)(F)F)ccc1=O)NCc1cc2cc(C(=O)N3CCC(N4C(=O)OCc5ccccc54)CC3)ccc2o1 ?
Result string: 5.90

Query string: Which pKi value belongs to O=C(Cn1cnc(C(F)(F)F)cc1=O)NCc1cc2cc(C(=O)N3CCC(N4C(=O)OCc5ccccc54)CC3)ccc2o1 ?
Result string: 5.40

---

assay: Compound was tested for plasma clearance in dog; type: ADME, organism-based, Canis lupus familiaris
Quick reference: clearance of the listed items.
I only need the number, in mL/min/kg, no unit after it.

{"columns": ["SMILES STR", "READOUT KIND", "ENDPOINT RESULT"],
 "data": [
  ["O=C(Cn1ccc(-c2ccccc2)nc1=O)NCc1cc2cc(C(=O)N3CCC(N4C(=O)OCc5ccccc54)CC3)ccc2o1", "clearance", 9],
  ["O=C(Cn1ccc2ccccc2c1=O)NCc1cc2cc(C(=O)N3CCC(N4C(=O)OCc5ccccc54)CC3)ccc2o1", "clearance", 6],
  ["COc1cc(OC2CCN(C(C)=O)CC2)ccc1C(=O)N1CCC(N2C(=O)OCc3ccccc32)CC1", "clearance", 13]
]}

Query string: Which clearance value belongs to COc1cccn(CC(=O)NCc2cc3cc(C(=O)N4CCC(N5C(=O)OCc6ccccc65)CC4)ccc3o2)c1=O ?
Result string: 19

Query string: Which clearance value belongs to Cn1ncc2c(=O)n(CC(=O)NCc3cc4cc(C(=O)N5CCC(N6C(=O)OCc7ccccc76)CC5)ccc4o3)cnc21 ?
Result string: 11

Query string: Which clearance value belongs to O=C(Cn1cnc(C(F)(F)F)cc1=O)NCc1cc2cc(C(=O)N3CCC(N4C(=O)OCc5ccccc54)CC3)ccc2o1 ?
Result string: 6

Query string: Which clearance value belongs to O=C(Cn1ccccc1=O)NCc1cc2cc(C(=O)N3CCC(N4C(=O)OCc5ccccc54)CC3)ccc2o1 ?
Result string: 34

Query string: Which clearance value belongs to O=C(Cn1ccc(N2CCOCC2)nc1=O)NCc1cc2cc(C(=O)N3CCC(N4C(=O)OCc5ccccc54)CC3)ccc2o1 ?
Result string: 11

---

Target: Oxytocin receptor (Homo sapiens)
Sequence (P30559 whole entry): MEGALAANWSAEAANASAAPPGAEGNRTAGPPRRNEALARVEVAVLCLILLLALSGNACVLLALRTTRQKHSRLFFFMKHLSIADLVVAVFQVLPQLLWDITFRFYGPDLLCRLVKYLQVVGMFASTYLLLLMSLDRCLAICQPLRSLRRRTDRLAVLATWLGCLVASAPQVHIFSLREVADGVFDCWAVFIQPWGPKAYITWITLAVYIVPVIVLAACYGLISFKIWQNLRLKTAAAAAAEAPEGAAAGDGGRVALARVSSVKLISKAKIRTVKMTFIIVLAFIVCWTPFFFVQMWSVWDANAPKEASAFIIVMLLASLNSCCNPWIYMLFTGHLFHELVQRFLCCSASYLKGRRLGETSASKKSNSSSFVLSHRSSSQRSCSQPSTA
pKi: −log10 of the molar value.
Returns yes if the recorded pKi is greater than or equal to 8, and no otherwise.

Record excerpt, results attached:
{"columns": ["SMILES STR", "LABEL VALUE"],
 "data": [
  ["O=C(Cn1ccc(-c2ccccc2)nc1=O)NCc1cc2cc(C(=O)N3CCC(N4C(=O)OCc5ccccc54)CC3)ccc2o1", "yes"],
  ["O=C(Cn1cc(C(F)(F)F)ccc1=O)NCc1cc2cc(C(=O)N3CCC(N4C(=O)OCc5ccccc54)CC3)ccc2o1", "yes"],
  ["Cn1c(CNC(=O)Cn2cc(C(F)(F)F)ccc2=O)cc2ccc(C(=O)N3CCC(N4C(=O)OCc5ccccc54)CC3)cc21", "no"],
  ["O=C(c1ccc2oc(CN3CCC[C@@H](n4cc(C(F)(F)F)ccc4=O)C3)cc2c1)N1CCC(N2C(=O)OCc3ccccc32)CC1", "no"],
  ["O=C(c1ccc2oc(-c3cc(Cn4cc(C(F)(F)F)ccc4=O)ccn3)cc2c1)N1CCC(N2C(=O)OCc3ccccc32)CC1", "no"]
]}

Shift focus to the following entry.
Query string: Test whether the compound O=C(Cn1cc(C(F)(F)F)ccc1=O)NCc1cc2cc(C(=O)N3CCC(N4C(=O)OCc5ccccc54)CC3)cnc2o1 records pKi of 8 or higher.
Result string: yes

Where these numbers come from: ChEMBL document CHEMBL1135117
